FYI, the data here is from ChEMBL document CHEMBL5505961.

biological target: Receptor-interacting serine/threonine-protein kinase 1 (Homo sapiens)
Sequence (Q13546 whole entry): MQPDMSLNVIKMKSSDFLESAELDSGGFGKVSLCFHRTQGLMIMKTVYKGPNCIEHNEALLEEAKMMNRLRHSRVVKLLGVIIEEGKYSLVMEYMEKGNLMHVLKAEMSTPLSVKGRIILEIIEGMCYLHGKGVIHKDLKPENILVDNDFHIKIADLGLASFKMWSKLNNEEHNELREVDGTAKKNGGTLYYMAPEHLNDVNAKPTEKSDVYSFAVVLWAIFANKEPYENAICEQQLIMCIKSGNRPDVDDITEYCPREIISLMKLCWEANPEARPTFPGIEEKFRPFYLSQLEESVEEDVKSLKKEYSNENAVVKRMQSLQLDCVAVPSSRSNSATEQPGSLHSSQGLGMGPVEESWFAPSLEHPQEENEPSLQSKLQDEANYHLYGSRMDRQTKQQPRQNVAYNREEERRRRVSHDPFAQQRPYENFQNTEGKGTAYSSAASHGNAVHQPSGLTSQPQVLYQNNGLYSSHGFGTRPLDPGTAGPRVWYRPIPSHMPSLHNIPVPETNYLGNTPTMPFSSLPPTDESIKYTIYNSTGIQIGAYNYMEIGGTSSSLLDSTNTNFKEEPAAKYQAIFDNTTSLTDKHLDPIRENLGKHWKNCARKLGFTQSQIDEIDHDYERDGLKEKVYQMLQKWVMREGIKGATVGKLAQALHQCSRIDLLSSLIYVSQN
reported_metric: IC50 (nM)
Give bare numbers, in nM.

Provide one value: measured IC50 of O=C(c1cc2c(-c3ccc(F)cc3)cccc2s1)N1CCOCC1
110

###

tested on: MEF; assay: cells; conditions: Mus musculus, 24 h
reported_metric: EC50 (µM)
Give bare numbers, in µM.

Note down EC50 recorded for CC(C)(C)c1cc(NC(=O)Nc2ccc(-c3cn4c(n3)sc3cc(OCCN5CCOCC5)ccc34)cc2)no1
66.5

###

experiment: clinical; details: human
reported_metric: half-life (min)
Answers are plain numbers, in min.

Identify the reported half-life for the following entry. Cc1nnsc1C(=O)N[C@H](C)c1c(F)cccc1Cl
32.5

Next:
Answer with the recorded half-life of CN1C(=O)N[C@@H](Cc2c[nH]c3c(Cl)cccc23)C1=O only.
60
